I'd be grateful if you could share measured Ki for these entries.
molecular target: Protoporphyrinogen oxidase (Homo sapiens) (UniProt P50336); test: Inhibition of Homo sapiens (human) recombinant protoporphyrinogen oxidase by fluorescence detection
Sequence (P50336 whole entry): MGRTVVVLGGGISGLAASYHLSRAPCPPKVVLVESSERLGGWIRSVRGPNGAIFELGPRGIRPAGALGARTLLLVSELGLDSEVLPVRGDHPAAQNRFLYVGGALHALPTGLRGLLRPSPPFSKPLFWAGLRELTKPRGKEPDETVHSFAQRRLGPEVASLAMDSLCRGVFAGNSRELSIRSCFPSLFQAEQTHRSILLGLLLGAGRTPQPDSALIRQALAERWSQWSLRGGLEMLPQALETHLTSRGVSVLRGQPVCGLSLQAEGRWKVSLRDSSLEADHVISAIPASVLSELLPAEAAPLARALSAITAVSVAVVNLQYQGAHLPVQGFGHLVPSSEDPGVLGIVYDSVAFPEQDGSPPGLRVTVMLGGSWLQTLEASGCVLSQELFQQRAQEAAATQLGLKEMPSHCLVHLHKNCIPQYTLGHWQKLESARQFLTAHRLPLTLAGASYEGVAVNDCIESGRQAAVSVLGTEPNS
Numbers only, in nM.

Examples with answers:
>>> measured_value("CCOC(=O)CCCSc1nc2cc(N3C(=O)C4=C(CCCC4)C3=O)c(Cl)cc2s1")
750
>>> measured_value("CCOC(=O)CCSc1nc2cc(N3C(=O)c4ccccc4C3=O)c(Cl)cc2s1")
3760
>>> measured_value("COC(=O)Sc1nc2cc(N3C(=O)C4=C(CCCC4)C3=O)c(F)cc2s1")
80
>>> measured_value("CCOC(=O)CSc1nc2cc(N3C(=O)C4=C(CCCC4)C3=O)c(Cl)cc2s1")
1660
>>> measured_value("CCOC(=O)C(C)Sc1nc2cc(N3C(=O)c4ccccc4C3=O)c(Cl)cc2s1 (stereo not given)")
85900

Hello, I would appreciate it if you could give Ki for each entry below.
1. COC(=O)Sc1nc2cc(N3C(=O)C4=C(CCCC4)C3=O)c(Cl)cc2s1
2. CC(C)OC(=O)CSc1nc2cc(N3C(=O)C4=C(CCCC4)C3=O)c(F)cc2s1
3. COC(=O)CSc1nc2cc(N3C(=O)c4ccccc4C3=O)c(F)cc2s1
4. CCOC(=O)CCSc1nc2cc(N3C(=O)C4=C(CCCC4)C3=O)c(F)cc2s1
5. CCOC(=O)CSc1nc2cc(N3C(=O)C4=C(CCCC4)C3=O)c(F)cc2s1

result:
1. 520
2. 210
3. 2250
4. 110
5. 250
